Task for the reader: assign each of the following binders its reported Mean % WT Binding.
- measurement-target: human CD33 V294A (human, UniProt P20138 18-364)
- Sequence (P20138 18-364 V294A limits assumed): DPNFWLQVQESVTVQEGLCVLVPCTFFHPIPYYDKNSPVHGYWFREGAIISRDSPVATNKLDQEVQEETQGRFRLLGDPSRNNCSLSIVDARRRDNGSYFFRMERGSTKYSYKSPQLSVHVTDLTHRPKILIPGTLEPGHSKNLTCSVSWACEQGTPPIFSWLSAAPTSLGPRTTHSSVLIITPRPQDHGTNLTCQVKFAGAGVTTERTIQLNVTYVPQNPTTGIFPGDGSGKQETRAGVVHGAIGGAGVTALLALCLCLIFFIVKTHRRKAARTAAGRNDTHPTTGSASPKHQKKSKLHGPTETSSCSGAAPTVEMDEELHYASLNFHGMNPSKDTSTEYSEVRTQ
- procedure-summary: alanine scan, flow cytometry, HEK293-T;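 also: antibody binding to each alanine-substituted CD33 mutant expressed transiently in HEK293-T, read as fluorescence minus background, mean of duplicates, relative to wild-type CD33 set as 100%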
Answers are plain numbers, in % WT binding.

Worked examples follow.
Refmab #2 (antibody, V domains shown, The alanine scan used IgG or Fab) VH: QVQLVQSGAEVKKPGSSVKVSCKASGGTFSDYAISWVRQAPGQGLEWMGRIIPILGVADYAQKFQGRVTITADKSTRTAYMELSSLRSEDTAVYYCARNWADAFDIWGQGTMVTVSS VL: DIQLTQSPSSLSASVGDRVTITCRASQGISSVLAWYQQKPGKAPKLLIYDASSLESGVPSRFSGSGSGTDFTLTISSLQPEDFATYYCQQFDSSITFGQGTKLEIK	105
Refmab #3 (antibody, V domains shown, The alanine scan used IgG or Fab) VH: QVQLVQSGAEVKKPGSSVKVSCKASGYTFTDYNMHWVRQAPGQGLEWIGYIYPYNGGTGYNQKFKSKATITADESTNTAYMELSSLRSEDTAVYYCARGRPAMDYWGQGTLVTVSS VL: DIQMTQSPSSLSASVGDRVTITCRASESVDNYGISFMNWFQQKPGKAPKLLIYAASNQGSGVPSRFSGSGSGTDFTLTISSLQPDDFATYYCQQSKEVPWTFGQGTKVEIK	95.8

We now examine a further binder.
Asked: Suppose we examine the binder Refmab #4 (antibody, V domains shown, The alanine scan used IgG or Fab) VH: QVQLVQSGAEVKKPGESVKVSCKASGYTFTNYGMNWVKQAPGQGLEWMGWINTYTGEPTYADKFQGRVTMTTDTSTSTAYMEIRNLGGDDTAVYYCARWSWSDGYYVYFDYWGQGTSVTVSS VL: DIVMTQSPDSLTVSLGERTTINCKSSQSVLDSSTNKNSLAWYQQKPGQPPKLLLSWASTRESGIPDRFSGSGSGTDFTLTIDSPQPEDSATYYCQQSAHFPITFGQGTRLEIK ; what Mean % WT Binding value has been reported?
Given back: 97.8

Provenance of the data: patent US20260242735A1
